# target-entity: melatonin receptor
# protocol-summary: Inhibition of 2-[^125 I]iodomelatonin binding in forebrain homogenate of 7-day-old chicken
# recorded-conditions: 80 pM 2-[^125 I]iodomelatonin, 90 minutes at 25° C., 7-day-old chicken forebrain homogenate, log-probit analysis; read-out: IC50, action of inhibiting 2-[^125 I]iodomelatonin binding
reported-metric: IC50 (nM)
Note: unit nM is implicit; provide only the numeric part.

GET /values?readout=IC50&item= COc1ccc2c(c1)/C(=C/CNC(=O)C(F)(F)F)CCC2 [compound 33]
0.72

Likewise for CC(=O)NCCC1CCCc2ccc(O)cc21 (stereo not drawn) [compound 35] ?
0.95

Likewise for COc1ccc2c(c1)[C@H](CCNC(C)=O)CC2 [compound 66] ?
0.7

Reference source for all entries: patent US6235789A
